- System: ACHN renal
- Procedure summary: NCI-60 one-dose screen, 48 h
- Measurement parameters: 10 µM unless noted
This is part of a sample that, as a whole, favours compounds with a hit. Of some 83,000 tested, about 20% had one in any assay. Activity calls are given as the source filed them. Rule for the calls: active = growth percent below 10; inactive = the rest.
API: response.call in 1 (active), 0 (inactive)

These solved cases illustrate the format of a correct answer.
Molecule	Class assignment
FCc1nc2nc(Cl)c(Cl)nc2[nH]1	0
COc1ccc(Cn2nc(-c3ccccc3)c3c2CCc2cnoc2-3)cc1	0
COc1ccc(-c2cnc(N)nc2-c2ccc(OC)cc2O)cc1	0
Nc1c(C(=O)Nc2cccc3ccncc23)sc2nc3c(cc12)C(=O)CCC3	0
CC1=CC2(C)/C=C(C)/C=C\CC(O)/C=C3/C=CC(=C4C(=O)OC2(CC1C)C4=O)OC3 (stereo unspecified)	1

Problem: Recorded call for O=C1Nc2c(ccc(Cl)c2Cl)/C1=C/c1ccc([N+](=O)[O-])cc1 ?
Result: 0

Problem: # fetch the recorded call for CCCCCCCCCCCCCCCCCCOc1ccccc1N here
Result: 0

Problem: How was O=C1Nc2c(ccc(Cl)c2Cl)/C1=C/c1ccccn1 classified in this test?
Result: 0

Problem: Hi, sorry to bother you, what did the test record for COc1cc(/C=C2\C(=O)N(Cc3ccc(Cl)cc3)c3ccccc32)cc(OC)c1OC ?
Result: 0

Problem: Give the logged outcome of this assay for the following molecule: c1ccc(-c2nn(-c3ccccc3)[n+](-c3cccc4ccccc34)n2)cc1
Result: 0

Problem: Given O=C1C(=O)c2c(nc3ncccn23)-c2ccccc21 , state the outcome it received in this test.
Result: 1
